- Test summary: qHTS Assay for Lipid Storage Modulators in Drosophila S3 Cells
- Measurement conditions: BODIPY lipid droplet fluorescence, 18-24 h, cells fed with added oleic acid; series mostly up to 46.1 µM
In all, about 320,000 compounds went through this assay and about 2,100 (0.66%) were called active. Not shown: some 53% with an inconclusive outcome. Calls come from the whole dose curve; as a rule, active = well fitted inhibition curve with a large enough effect in the signal ratio, with a control signal flat (not every such curve was filed as active); inconclusive = small, poorly fitted or top-dose-only effect, or effect the other way, or a change in a side signal; inactive = flat fitted curve, though single readings scatter; the % refers to the signal ratio. This excerpt belongs to a sample that is enriched for actives.
Outcome codes: active, inactive

{"Compound": "CCCCCCCCCCCCS[C@H]1CS(=O)(=O)C[C@@H]1O", "Group": "inactive"}
{"Compound": "CCCN1CCC(N2CCCC(C(=O)O)C2)CC1 (stereo unspecified)", "Group": "inactive"}
{"Compound": "C[C@H](NC(=O)CCCOc1ccc(Cl)cc1Cl)c1nnc2ccccn12", "Group": "active"}
{"Compound": "COc1cc(/C=C2\\SC(=S)N(CCC(=O)Nc3cccc(O)c3)C2=O)cc(OC)c1OC", "Group": "active"}
{"Compound": "COc1cn(-c2ccccc2)nc1C(=O)NCc1ccccc1", "Group": "inactive"}
{"Compound": "O=C(Nc1ccc(S(=O)(=O)N2CCOCC2)cc1)c1ccco1", "Group": "inactive"}
{"Compound": "COc1cc(/C=C2/SC(=S)N(CCC(=O)Nc3ccccc3)C2=O)cc(OC)c1OC", "Group": "active"}
{"Compound": "Cc1ccc(NC(=O)N2CCCC(C(=O)O)C2)cc1 (stereo unspecified)", "Group": "inactive"}
{"Compound": "O=S(=O)(Nc1cccc(Cl)c1)c1ccc(-n2cccn2)cc1", "Group": "inactive"}
{"Compound": "CCc1nn(C(CC)C(=O)NCc2cccc(OC)c2)c(=O)c2cc3occc3n12 (stereo unspecified)", "Group": "inactive"}
{"Compound": "COc1cccc(NS(=O)(=O)c2ccc(-n3cccn3)cc2)c1", "Group": "active"}
{"Compound": "O=C(NC1CCCCC1)C1Cc2ccccc2CN1S(=O)(=O)c1ccc(F)cc1 (stereo unspecified)", "Group": "inactive"}
{"Compound": "O=C(Nc1ccc(N2CCCC2)c(Cl)c1)c1ccco1", "Group": "inactive"}
{"Compound": "COc1ccc(CC(=O)Nc2nc(-c3ccc(F)c(F)c3)cs2)cc1", "Group": "inactive"}
{"Compound": "C=CCN1C(=O)C2(OCCCO2)c2cc(Cl)ccc21", "Group": "active"}
{"Compound": "CCc1cccc(NS(=O)(=O)c2ccc(-n3cccn3)cc2)c1", "Group": "inactive"}
{"Compound": "Cc1cc(C)n(-c2ccc(C(=O)NCc3ccc4c(c3)OCO4)cc2)n1", "Group": "inactive"}
{"Compound": "CS(=O)(=O)N(CC(=O)Nc1ccccc1-c1ccccc1)c1ccccc1", "Group": "inactive"}
{"Compound": "COc1ccccc1C(C)NC(=O)c1cc(=O)[nH]c2ccccc12 (stereo unspecified)", "Group": "inactive"}
{"Compound": "COc1ccc(CC(=O)Nc2nc(-c3ccc(OC)c(OC)c3)cs2)cc1OC", "Group": "inactive"}
{"Compound": "O=C(CCN1C(=O)/C(=C/c2ccccc2)SC1=S)N[C@@H](CO)Cc1ccccc1", "Group": "inactive"}
{"Compound": "CCc1nn(C(CC)C(=O)NCc2cccs2)c(=O)c2cc3occc3n12 (stereo unspecified)", "Group": "inactive"}
{"Compound": "NS(=O)(=O)c1cc(Cl)c(NC(=O)COC(=O)c2ccccn2)c(Cl)c1", "Group": "inactive"}
{"Compound": "CSc1cccc(CNC(=O)CC2C(=O)NCCN2CC(C)(C)C)c1 (stereo unspecified)", "Group": "inactive"}
{"Compound": "Cc1cccc(CNC(=O)c2cc(S(=O)(=O)N3CCOCC3)cn2C)c1", "Group": "inactive"}
{"Compound": "COc1ccc(NC(=S)NNC(=O)CNc2ccc(Cl)cc2)cc1", "Group": "inactive"}
{"Compound": "COc1cn(-c2ccccc2)nc1C(=O)OCC(=O)Nc1ccc(C)c(C)c1", "Group": "inactive"}
{"Compound": "O=C(OCc1ccc(Cl)cc1)c1cnccn1", "Group": "active"}
{"Compound": "Oc1ccc(CNC2CCCCC2)cc1", "Group": "inactive"}
{"Compound": "CN1C(=O)C(=C2CCCCCC2)SC1=S", "Group": "inactive"}
{"Compound": "CC(C)N(C)Cc1nnnn1CC(=O)NCc1cc(F)cc(C(F)(F)F)c1", "Group": "inactive"}
{"Compound": "O=C(Nc1ccc(S(=O)(=O)N2CCCCCC2)cc1)c1ccco1", "Group": "inactive"}
{"Compound": "CCc1nn(C(CC)C(=O)NCc2cccc(OC)c2OC)c(=O)c2cc3occc3n12 (stereo unspecified)", "Group": "active"}
{"Compound": "COc1cn(-c2ccccc2)nc1C(=O)Nc1ccccc1", "Group": "active"}
{"Compound": "C=CCN1C(=O)C2(OCCO2)c2cc(C)ccc21", "Group": "inactive"}
{"Compound": "Clc1ccc(CNC2CCCC2)c(Cl)c1", "Group": "inactive"}
{"Compound": "Clc1ccc(CNC2CCCC2)cc1", "Group": "active"}
{"Compound": "CC(C)NC(=O)CCCOc1ccc(Cl)cc1Cl", "Group": "inactive"}
{"Compound": "O=C(CCN1C(=O)/C(=C/c2ccc(F)cc2)SC1=S)N[C@@H](CO)Cc1ccccc1", "Group": "active"}
{"Compound": "CCOC(=O)c1cc2sc(C)cc2n1CC(=O)NCCc1ccccc1", "Group": "inactive"}
{"Compound": "CCOC(=O)N1CCC(NCCNC(=O)c2ccco2)CC1", "Group": "inactive"}
{"Compound": "COc1cc(/C=C2\\SC(=S)N(CCC(=O)Nc3ccccc3O)C2=O)cc(OC)c1OC", "Group": "inactive"}
{"Compound": "CC(=O)N1CCc2cc(S(=O)(=O)Nc3ccc(C)cc3)ccc21", "Group": "inactive"}
{"Compound": "Cc1ccc(S(=O)(=O)N(C)/N=C/c2ccc(N(C)C)cc2)cc1", "Group": "inactive"}
{"Compound": "COc1cccc(NS(=O)(=O)c2ccc3c(c2)CCN3C(C)=O)c1", "Group": "active"}
{"Compound": "COc1ccc(/C=C2/N=C(SC3CCOC3=O)N(c3cccc(OC)c3)C2=O)cc1 (stereo unspecified)", "Group": "inactive"}
